# Test system: Human T-cell leukemia virus type I
# method: Inhibition of human recombinant HTLV1 protease at 100 uM
*1 amine or outer side, *2 acyl side, *3 side chain or, on linkers, in order; H or OH if unused. Where a SMILES comes first, the peptide text is derived from it. [ ]: non-standard residue; d: D form. X1 = O=C([C@@H](O)[C@H](Cc1ccccc1)N[*:1])[*:2]; Thz(5,5-Me2) = CC1(C)SCN[C@@H]1C(=O)O
readout.kind: inhibition (%)

molecule | readout.kind | qual | value.observed
CSCC[C@H](NC(=O)[C@@H](CSC)NC(=O)[C@H]1N(C(=O)[C@@H](O)[C@H](Cc2ccccc2)NC(=O)[C@@H](NC(=O)[C@H](CCC(N)=O)NC(C)=O)C(C)C)CSC1(C)C)C(N)=O | inhibition | < | 30
CSCC[C@H](NC(=O)[C@@H](NC(=O)[C@H]1N(C(=O)[C@@H](O)[C@H](Cc2ccccc2)NC(=O)[C@@H](NC(=O)[C@H](Cc2ccccc2)NC(C)=O)C(C)C)CSC1(C)C)C(C)C)C(N)=O (Ac-FV[X1][Thz(5,5-Me2)]VM-NH2) | inhibition | = | 74
